Test system: 786-0
TEST DESCRIPTION: NCI tumour cell line growth inhibition, 48 h
Calls of active or inactive are those of the source. No stated cut-off is given here; in the data, active = GI50 up to about 1.1 µM and inactive = higher.
Your response should consist of one outcome taken from yes = active, no = inactive

Q: GET /call?item= c1ccc2c(c1)SC1=Nc3sc4ccccc4[n+]3CN12 returns the recorded outcome of this test.
Ans: no

Q: GET /call?item= CCOC(=O)C1CN(C2CC2)CCC1=O (configuration not stated) returns the recorded outcome of this test.
Ans: no

Q: GET /call?item= Oc1ccccc1C1=NOC(c2ccc(C(F)(F)F)cc2)C1 (configuration not stated) returns the recorded outcome of this test.
Ans: no

Q: GET /call?item= COc1ccccc1N1CCN(S(=O)(=O)c2ccc(Cl)cc2)C1=N returns the recorded outcome of this test.
Ans: no

Q: GET /call?item= O=C1NC(=O)C2C(=O)NC(=O)C1C2c1c(Cl)cccc1Cl (configuration not stated) returns the recorded outcome of this test.
Ans: no

Q: GET /call?item= Cc1c2ccnc(O)c2cc2c(=O)c3cnccc3[nH]c12 returns the recorded outcome of this test.
Ans: no

Q: GET /call?item= CC(NC(=O)C(N)CC(=O)O)NC(=O)N1CCCC1 (configuration not stated) returns the recorded outcome of this test.
Ans: no

Q: GET /call?item= N=C(N)NS(=O)(=O)c1ccc(NNc2c3ccccc3nc3ccccc23)cc1 returns the recorded outcome of this test.
Ans: no

Q: GET /call?item= CN1C(=O)N(c2nc3ccccc3[nH]2)C(C)(C)C1=O returns the recorded outcome of this test.
Ans: no

Q: GET /call?item= Cc1cc(CN2CCCCC2)c(O)c(CN2CCCCC2)c1 returns the recorded outcome of this test.
Ans: no

Q: GET /call?item= O=C(O)c1c([N+](=O)[O-])cc(C(F)(F)F)cc1[N+](=O)[O-] returns the recorded outcome of this test.
Ans: no

Q: GET /call?item= Cc1cccc(N2C(=O)C(=O)C(c3nc4ccccc4s3)C(=O)C2=O)c1C returns the recorded outcome of this test.
Ans: no

Q: GET /call?item= C=C1CC/C=C(\C)C(=O)C[C@@H]2[C@@H]1CC2(C)C [BUDDLEDIN C] returns the recorded outcome of this test.
Ans: yes

Q: GET /call?item= OC1CCCN(C2(c3cccs3)CCCCC2)C1 (configuration not stated) returns the recorded outcome of this test.
Ans: no

Q: GET /call?item= CC1(C)OC2C(CO)OC(n3ccc(=O)[nH]c3=O)C2O1 (configuration not stated) returns the recorded outcome of this test.
Ans: no

Q: GET /call?item= O=C1C2=Cc3ccccc3OC2(O)Oc2cc3ccccc3cc21 (configuration not stated) returns the recorded outcome of this test.
Ans: no

Q: GET /call?item= CCCCNC(=S)Nc1nc(C(=O)NNC(=S)NCc2ccccc2)cs1 returns the recorded outcome of this test.
Ans: no

Q: GET /call?item= CC(CCCOC(c1ccccc1)(c1ccccc1)c1ccccc1)OC(=O)Nc1ccccc1 (configuration not stated) returns the recorded outcome of this test.
Ans: no

Q: GET /call?item= CC(=O)OCC1OC(Oc2cc(C)c(O)cc2C/C=C(\C)CC/C=C(\C)C[C@@H](C=C(C)C)OC(C)=O)C(O)C(OC(C)=O)C1OC(C)=O (some centres not stated) returns the recorded outcome of this test.
Ans: no

Q: GET /call?item= C/C(=N\NC(=O)c1ccc(Cl)cc1)c1nc2cccnc2[nH]1 returns the recorded outcome of this test.
Ans: no

Q: GET /call?item= COc1ccc(/C=N\N2CC(=O)N3C4C=CC(CC4)N3C2=O)cc1 (configuration not stated) returns the recorded outcome of this test.
Ans: no

Q: GET /call?item= CCOC(=O)C1=C(C)N(c2ccc(C)cc2)C2=C(C(=O)N(c3ccccc3)C2c2ccccc2)C1c1ccccc1 (configuration not stated) returns the recorded outcome of this test.
Ans: no

* * *

Please go through the items and note down their GI50.
System: 786-0
TEST DESCRIPTION: NCI tumour cell line growth inhibition, 48 h
Activity calls are given as the source filed them. Rule as the data show it: active = GI50 up to about 1.1 µM and inactive = higher.

Q: Please give the measured GI50 for this compound: O=[N+]([O-])c1ccc(/C=C\c2ccc3c(c2)OCO3)c([N+](=O)[O-])c1
Ans: 16.9 µM (inactive)

Q: Please give the measured GI50 for this compound: Cn1c(-c2ccccc2)cc(-c2ccc3c(c2)OCO3)c1-c1cccs1
Ans: > 100 µM (inactive)

Q: Please give the measured GI50 for this compound: Oc1ccc(-c2nc3cc(C(F)(F)F)ccc3n2CC2CCCN3CCCCC23)cc1 (stereo not given)
Ans: 17 µM (inactive)

Q: Please give the measured GI50 for this compound: CCOC(=O)C1(C#N)C(c2ccccc2)CC(O)(c2ccc(OC)cc2)C(C(=O)c2ccc(OC)cc2)C1c1ccccc1 (stereo not given)
Ans: > 100 µM (inactive)

Q: Please give the measured GI50 for this compound: CC(C)=CCC/C(C)=C/COC(C)(C)C1=CCC(C)CC1.CC(C)=CCC/C(C)=C/COC1CC(C)CCC1=C(C)C (stereo not given)
Ans: > 100 µM (inactive)

* * *

System: TK-10
TEST DESCRIPTION: NCI tumour cell line growth inhibition, 48 h
Activity calls are given as the source filed them. No stated cut-off is given here; in the data, active = GI50 up to about 1.1 µM and inactive = higher.
Your response should consist of one outcome taken from active, inactive

Q: GET /call?item= CC(C)(C)OC(=O)N/C=C1\C(=O)Oc2ccccc2C1=O returns the recorded outcome of this test.
Ans: inactive

Q: GET /call?item= O=C1NC(NCc2ccc(F)cc2)=N/C1=C\c1ccccc1Cl returns the recorded outcome of this test.
Ans: inactive

Q: GET /call?item= CCOC(=O)C(=O)N/N=C1\C(=O)Nc2ccccc21 returns the recorded outcome of this test.
Ans: inactive

Q: GET /call?item= CC(=O)/C(=N\O)C(=O)Nc1ccc(Cl)cc1Cl returns the recorded outcome of this test.
Ans: inactive

Q: GET /call?item= CN(C)CC1CCCC/C1=N\OC(=O)c1ccccc1 (stereo not given) returns the recorded outcome of this test.
Ans: inactive

Q: GET /call?item= COc1cc([C@@H]2c3cc4c(cc3[C@@H](NC(=O)c3ccc(OC(C)=O)cc3)C3COC(=O)[C@@H]32)OCO4)cc(OC)c1O (stereo not given in full) returns the recorded outcome of this test.
Ans: inactive

Q: GET /call?item= FC(F)(Sc1nc2ccccc2[nH]1)c1nc2ccccc2o1 returns the recorded outcome of this test.
Ans: inactive

Q: GET /call?item= N=C(N)NC(=N)Nc1c(F)c(F)c(F)c(F)c1F returns the recorded outcome of this test.
Ans: inactive

Q: GET /call?item= NS(=O)(=O)c1ccc(NC2=CC(=O)C(=O)c3ccccc32)cc1 returns the recorded outcome of this test.
Ans: inactive

Q: GET /call?item= CCOC(=O)CCC1(C(=O)OCC)CCCCC1=O (stereo not given) returns the recorded outcome of this test.
Ans: inactive

Q: GET /call?item= C/C(=N\O)c1cccc(Nc2c3ccccc3nc3occc23)c1 returns the recorded outcome of this test.
Ans: inactive

Q: GET /call?item= COC(=O)N[C@@H]1C[C@H]2CC[C@]1(O[Si](C(C)C)(C(C)C)C(C)C)C(=O)C2 returns the recorded outcome of this test.
Ans: inactive

Q: GET /call?item= Brc1cc(CCOC2CCCCO2)c(-c2sccc2CCOC2CCCCO2)s1 (stereo not given) returns the recorded outcome of this test.
Ans: inactive

Q: GET /call?item= CC(C)=NOC(=O)OC[C@H]1O[C@@H](n2cnc3c(N)ncnc32)C(O)C1O (stereo not given in full) returns the recorded outcome of this test.
Ans: inactive

Q: GET /call?item= O=C1C2=Cc3ccccc3OC2(O)Oc2cc3ccccc3cc21 (stereo not given) returns the recorded outcome of this test.
Ans: inactive

Q: GET /call?item= O=C1/C(=C/C=C/c2ccccc2)CCC1CNc1ccccc1 (stereo not given) returns the recorded outcome of this test.
Ans: inactive

Q: GET /call?item= Nc1nc2c(ncn2CC(CO)CC(c2ccccc2)P(=O)(O)O)c(=O)[nH]1 (stereo not given) returns the recorded outcome of this test.
Ans: inactive

Q: GET /call?item= CC1CC(c2ccccc2)=Nc2ccccc2S1 (stereo not given) returns the recorded outcome of this test.
Ans: inactive

Q: GET /call?item= Cc1c(OC(C)C(=O)O)ccc2c(-c3ccccc3)cc(=O)oc12 (stereo not given) returns the recorded outcome of this test.
Ans: inactive

Q: GET /call?item= O=Cc1coc2ccccc2c1=O returns the recorded outcome of this test.
Ans: inactive

Q: GET /call?item= O=C1C(Cl)C(c2cc(Br)cc(Br)c2O)N1n1cnc2ccccc2c1=O (stereo not given) returns the recorded outcome of this test.
Ans: inactive

Q: GET /call?item= N=C1NC(=O)N2CC12 (stereo not given) [IMEXON] returns the recorded outcome of this test.
Ans: inactive

Q: GET /call?item= C[C@@H]1C[C@@H]([C@H](O)CC2CC(=O)NC(=O)C2)C(=O)[C@@H](C)C1 [CYCLOHEXIMIDE] returns the recorded outcome of this test.
Ans: active

Q: GET /call?item= CC[C@@]1(O)C(=O)OCc2c1cc1n(c2=O)Cc2c-1nc1ccccc1c2/C=N\NC(=O)C(C)N (stereo not given in full) returns the recorded outcome of this test.
Ans: inactive

Q: GET /call?item= CC1(c2cccc(N)c2)C2C(=O)NC(=O)C1C(=O)NC2=O (stereo not given) returns the recorded outcome of this test.
Ans: inactive

Q: GET /call?item= CC(C)SC1SCC2C(=O)N(C)C3(CC3C)C(=O)OCC(NC(=O)c3nc4ccccc4cc3O)C(=O)NC(C)C(=O)N(C)C1C(=O)N(C)C1(CC1C)C(=O)OCC(NC(=O)c1nc3ccccc3cc1O)C(=O)NC(C)C(=O)N2C (stereo not given) returns the recorded outcome of this test.
Ans: active

Q: GET /call?item= COC(OC)c1cccc2c1C(=O)CCC1(CC2)OCCCCO1 returns the recorded outcome of this test.
Ans: inactive

Q: GET /call?item= Cc1ccc(-c2[nH]c(=O)n(C3OC(CO)C(O)C(O)C3O)c(=O)c2C#N)cc1 (stereo not given) returns the recorded outcome of this test.
Ans: inactive

Q: GET /call?item= O=c1cc(-c2ccccc2F)[nH]c2cc3c(cc12)OCO3 returns the recorded outcome of this test.
Ans: inactive

Q: GET /call?item= CC(NC(=O)C(N)CC(=O)O)NC(=O)N1CCCC1 (stereo not given) returns the recorded outcome of this test.
Ans: inactive
